log10 IC50 values for the molecules below.
Target: hepsin (Homo sapiens, UniProt P05981)
Construct: purchased R&D Systems 4776-SE-010
Sequence (P05981 163-417 limits assumed): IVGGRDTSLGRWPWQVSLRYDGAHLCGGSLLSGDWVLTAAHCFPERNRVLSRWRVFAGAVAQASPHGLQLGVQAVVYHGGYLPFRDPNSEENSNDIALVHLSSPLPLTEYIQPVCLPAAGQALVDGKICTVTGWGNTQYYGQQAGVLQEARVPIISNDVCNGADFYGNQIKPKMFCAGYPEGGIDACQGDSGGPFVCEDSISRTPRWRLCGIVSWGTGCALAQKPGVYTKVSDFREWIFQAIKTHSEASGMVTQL
Sequence (P05981 1-162 partner limits assumed): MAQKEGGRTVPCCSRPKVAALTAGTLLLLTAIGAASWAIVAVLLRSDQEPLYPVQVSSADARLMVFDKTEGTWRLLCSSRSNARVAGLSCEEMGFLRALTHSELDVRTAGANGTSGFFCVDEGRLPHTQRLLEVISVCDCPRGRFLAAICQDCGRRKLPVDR
Procedure details: Fluorogenic kinetic enzyme inhibitor assay, hepsin
Type: biochemical
Outcome measure: log10 IC50 (log10 of the value in nM)

Molecule | log10 IC50
CC(=O)N1CCC[C@H]1C(=O)N[C@@H](CO)C(=O)N[C@@H](CCCCN)C(=O)N[C@@H](CCCNC(=N)N)C(=O)c1nc2ccccc2s1 [MM3194A] | 0.39
CC(=O)N[C@H]1C/C=C\COc2ccc(cc2)C[C@@H](C(=O)N[C@@H](CCCNC(=N)N)C(=O)c2nc3ccccc3s2)NC(=O)[C@H](CC(C)C)NC1=O | 1.30
CC(=O)N[C@@H](CCC(C)C)C(=O)N[C@@H](CCC(=O)OC1CCCCC1)C(=O)N[C@@H](Cc1ccc(F)cc1)C(=O)N[C@@H](CCCNC(=N)N)C(=O)c1nc2ccccc2s1 | 0.54
CC(=O)N[C@@H](Cc1ccccc1)C(=O)N[C@@H](CC(C)C)C(=O)N[C@@H](Cc1ccccc1)C(=O)N[C@@H](CCCNC(=N)N)C(=O)c1nc2ccccc2s1 | 0.46
CC(=O)N[C@@H](Cc1c[nH]c2ccccc12)C(=O)N[C@@H](CC(C)C)C(=O)N[C@@H](Cc1ccccc1)C(=O)N[C@@H](CCCNC(=N)N)C(=O)c1nc2ccccc2s1 | -0.16
CC(=O)N[C@H]1Cc2ccc(cc2)OCCCC[C@@H](C(=O)N[C@@H](CCCNC(=N)N)C(=O)c2nc3ccccc3s2)NC(=O)[C@H](Cc2c[nH]c3ccccc23)NC1=O | 0.45
CC(=O)N1CCC[C@H]1C(=O)N[C@@H](CCC(N)=O)C(=O)N[C@@H](Cc1ccccc1)C(=O)N[C@@H](CCCNC(=N)N)C(=O)c1nc2ccccc2s1 | -0.87
CC(=O)N[C@@H](CC(C)C)C(=O)N[C@@H](CCC(N)=O)C(=O)N[C@@H](Cc1ccccc1)C(=O)N[C@@H](CCCNC(=N)N)C(=O)c1nc2ccccc2s1 | -0.61
CSCC[C@H](NC(C)=O)C(=O)N[C@@H](CCC(N)=O)C(=O)N[C@@H](Cc1ccccc1)C(=O)N[C@@H](CCCNC(=N)N)C(=O)c1nc2ccccc2s1 | -0.87
CC(=O)N1c2ccccc2C[C@H]1C(=O)N[C@@H](CCC(=O)OC1CCCCC1)C(=O)N[C@@H](Cc1ccc(F)cc1)C(=O)N[C@@H](CCCNC(=N)N)C(=O)c1nc2ccccc2s1 | 0.25
C=CCOC(=O)CC[C@H](NC(=O)[C@H](CCC(C)C)NC(C)=O)C(=O)N[C@@H](Cc1ccc(F)cc1)C(=O)N[C@@H](CCCNC(=N)N)C(=O)c1nc2ccccc2s1 | 1.04
CC(=O)N[C@H]1Cc2ccc(cc2)OCCCC[C@@H](C(=O)N[C@H](CCCNC(=N)N)C(=O)c2nc3ccccc3s2)NC(=O)[C@H](Cc2ccccc2)NC1=O [VD4111A] | 1.10
